- assay.procedure: Clearance in Sprague-Dawley rat at 5 mg/kg, po or 5 mg/kg, iv
- Format: ADME, organism-based
- test.context: in vivo
measurement.name: clearance (L/h/kg)
Numeric answer only, unit L/h/kg assumed.

Query string: Consider the compound `NC(=O)c1c(N)ncnc1N1CCC(c2nc(-c3ccc(F)c(C(F)(F)F)c3)cn2CCN2CCC2)CC1` and give its measured clearance.
Result string: 18.7
